Each record here notes measured IC50.
# study_system: CDK4-NanoLuc fusion with CCND1 in 293T or 293 cells (Homo sapiens, UniProt P11802)
# Construct: host or cells: 293T (ATCC CRL-3216) or 293 (ATCC CRL-1573)
# Sequence (P11802 whole entry, the tested form may be a part): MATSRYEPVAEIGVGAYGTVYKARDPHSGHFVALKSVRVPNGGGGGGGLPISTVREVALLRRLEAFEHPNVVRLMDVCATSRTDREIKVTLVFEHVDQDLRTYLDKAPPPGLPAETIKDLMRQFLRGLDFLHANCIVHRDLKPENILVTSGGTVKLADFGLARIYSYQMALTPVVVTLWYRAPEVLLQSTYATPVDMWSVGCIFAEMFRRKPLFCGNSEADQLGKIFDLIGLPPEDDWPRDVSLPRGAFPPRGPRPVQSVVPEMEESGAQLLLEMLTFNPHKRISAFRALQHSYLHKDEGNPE
# Sequence (P24385 whole entry partner, the tested form may be a part): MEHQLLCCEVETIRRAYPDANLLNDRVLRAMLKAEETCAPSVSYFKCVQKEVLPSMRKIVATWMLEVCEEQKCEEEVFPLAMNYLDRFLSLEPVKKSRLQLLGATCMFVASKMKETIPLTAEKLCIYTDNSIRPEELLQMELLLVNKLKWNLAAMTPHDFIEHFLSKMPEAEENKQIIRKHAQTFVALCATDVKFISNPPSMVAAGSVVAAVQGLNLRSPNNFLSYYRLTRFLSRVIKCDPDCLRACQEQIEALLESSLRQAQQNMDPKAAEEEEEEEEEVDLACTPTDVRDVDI
# experimental_details: NanoBRET Target Engagement (TE) Intracellular Kinase Assay, CDK4/CCND1
# Type: cell-based
# condition_details: NanoBRET TE intracellular kinase assay, 2-hour incubation, read-out: NanoBRET-CDK4/D1 IC50
// return numeric value only (unit: nM, not printed)

* COc1cc(O)c(C=O)c(OCC(=O)Nc2cc([C@H]3CC[C@@H](OC(=O)N4C[C@@H](F)[C@H](F)C4)C3)n[nH]2)c1 | 2580
* COc1cc(O)c(C=O)c(OCC(=O)Nc2cc([C@@H]3CC[C@H](OC(=O)NC(C)C)C3)[nH]n2)c1 | 7210
* CC(C)NC(=O)O[C@@H]1CC[C@H](c2cc(NC(=O)c3cc(C#Cc4cccc(O)c4C=O)nn3C)n[nH]2)C1 | 1550
* CC(C)NC(=O)O[C@@H]1CC[C@H](c2cc(NC(=O)[C@H]3C[C@@H]3c3cccc(O)c3C=O)n[nH]2)C1 (single isomer, unassigned) | 1000
* CC(C)NC(=O)O[C@@H]1CC[C@H](c2cc(NC(=O)COc3cc(F)cc(O)c3C=O)n[nH]2)C1 | 575

Prompt: Please give the measured IC50 for this compound: Cc1ncc(Oc2cccc(O)c2C=O)nc1C(=O)Nc1cc([C@H]2CC[C@@H](OC(=O)NC(C)C)C2)[nH]n1
Completion: 699

====

Each record here notes measured solubility at 2 h.
# experimental_details: Solubility determination in PBS pH 7.4
# Type: physicochemical
# condition_details: aqueous buffer, kinetic from dmso stock; PBS pH 7.4, 2 hours, 25° C.; the listed prodrug
// return numeric value only (unit: µM, not printed)

• COc1cc(O)c(/C=N/C(C)C)c2c1CC(C(=O)Nc1cc([C@H]3CC[C@@H](OC(=O)N(C)N(C)C)C3)n[nH]1)C2 (single isomer, unassigned) [Compound 284a] = 253
• CCC/N=C/c1c(O)cc(OC)cc1OCC(=O)Nc1cc([C@H]2CC[C@@H](OC(=O)NC3(C)CC3)C2)[nH]n1 [Compound 251b] = 41

API: the following record is the query input.
Prompt: Please give the measured solubility at 2 h for this compound: COc1cc(O)c(/C=N/C(C)C)c2c1CC(C(=O)Nc1cc([C@H]3CC[C@@H](OC(=O)NC(C)(C)C)C3)[nH]n1)C2 (single isomer, unassigned) [Compound 283a]
Completion: 149

====

Each record here notes measured pIC50.
# Test system: Phospho-Rb Ser807/811 in OVCAR3 cells
# experimental_details: OVCAR3 Phospho-Rb Ser807/811 HTRF assay
# Type: cell-based
# condition_details: Homo sapiens, OVCAR-3, 1 h, OVCAR3 cells, Phospho-Rb Ser807/811 HTRF, 1 hour incubation; read-out: pRb-OVCAR3 IC50
Scale note: pIC50 = -log10(concentration in M).

Here's what some known entries look like.
- COc1cc(O)c(C=O)c(OCC(=O)Nc2cc([C@H]3CC[C@@H](OC(=O)NCC(F)F)C3)[nH]n2)c1 [Compound 142]: 7.27
- COc1cc(O)c(C=O)c(OCC(=O)Nc2cc([C@H]3CC[C@@H](OC(=O)N4C[C@@H](F)[C@H](F)C4)C3)n[nH]2)c1 [Compound 124]: 7.42
- COc1cc(O)c(C=O)c(OCC(=O)Nc2cc([C@H]3CC[C@@H](OC(=O)N4CC[C@H](OC)C4)C3)[nH]n2)c1 [Compound 242]: 7.17
- COc1cc(O)c(C=O)c(OCC(=O)Nc2cc([C@H]3CC[C@@H](OC(=O)N4CC5CC4C5)C3)[nH]n2)c1 [Compound 228]: 7.46
- COc1cc(O)c(C=O)c(OCC(=O)Nc2cc([C@H]3CC[C@@H](OC(=O)N[C@@H]4C[C@@H]4F)C3)[nH]n2)c1 [Compound 133]: 7.71

Prompt: Please give the measured pIC50 for this compound: COc1cc(O)c(C=O)c(OCC(=O)Nc2cc([C@H]3CC[C@@H](OC(=O)N[C@@H](C)CC(F)(F)F)C3)[nH]n2)c1 [Compound 167]
Completion: 7.61

Prompt: Please give the measured pIC50 for this compound: COc1cc(O)c(C=O)c([C@@H]2C[C@H]2C(=O)Nc2cc([C@H]3CC[C@@H](OC(=O)NC(C)C)C3)[nH]n2)c1 (mixture of isomers) [Compound 89]
Completion: 7.35
